B1: FBF1 (parent)
chain: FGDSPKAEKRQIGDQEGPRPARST

# Variants of: B1
# Assay overview: protein stability index of a GFP-peptide fusion (GPS, HEK-293T) (PSI 1-6); higher = more stable;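 further: lentivirally expressed fusions sorted by FACS into six bins by GFP to DsRed ratio, PSI derived from sequencing read proportions per bin multiplied by bin number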
# Run parameters: c terminus: a fixed tail appended
Catalogue of protein stability index values

{"Sequence entry": "FGDSPKAEKRMIGDQEGPRPARST [Q11M]", "protein stability index": 5.22}
{"Sequence entry": "FGDSPKAEKRQIGDQEGARPARST [P18A]", "protein stability index": 5.27}
{"Sequence entry": "FGDSPKAEDRQIGDQEGPRPARST [K9D]", "protein stability index": 5.52}
{"Sequence entry": "FGDSPKAEKRQIGDQEGPRPARSR [T24R]", "protein stability index": 4.68}
{"Sequence entry": "FGDSGKAEKRQIGDQEGPRPARST [P5G]", "protein stability index": 4.79}
{"Sequence entry": "FGDSPKAEKRQIGDQEGPRPAWST [R22W]", "protein stability index": 3.86}
{"Sequence entry": "FGDSPKAEKRQIGDQEGPSPARST [R19S]", "protein stability index": 5.4}
{"Sequence entry": "FGDSSKAEKRQIGDQEGPRPARST [P5S]", "protein stability index": 4.84}
{"Sequence entry": "FGDSPKAEQRQIGDQEGPRPARST [K9Q]", "protein stability index": 5.53}
{"Sequence entry": "FGDSPFAEKRQIGDQEGPRPARST [K6F]", "protein stability index": 4.06}
{"Sequence entry": "FGDSPKAEKRVIGDQEGPRPARST [Q11V]", "protein stability index": 5.08}
{"Sequence entry": "FGDSPKAEKRQIGDQEGPRPARCT [S23C]", "protein stability index": 4.66}
{"Sequence entry": "FGDSPKAEKRQPGDQEGPRPARST [I12P]", "protein stability index": 5.12}
{"Sequence entry": "FGDSPNAEKRQIGDQEGPRPARST [K6N]", "protein stability index": 5.08}
{"Sequence entry": "FGDSPKAEKRQIGDQEKPRPARST [G17K]", "protein stability index": 5.02}
{"Sequence entry": "FGDSPKAEKRQIGDQNGPRPARST [E16N]", "protein stability index": 4.98}
{"Sequence entry": "FQDSPKAEKRQIGDQEGPRPARST [G2Q]", "protein stability index": 4.99}
{"Sequence entry": "FGDSPKAEKRQIGDQEGPRPSRST [A21S]", "protein stability index": 4.37}
{"Sequence entry": "FSDSPKAEKRQIGDQEGPRPARST [G2S]", "protein stability index": 4.96}
{"Sequence entry": "FGDSPKAEKRQIGDQEGPRPAEST [R22E]", "protein stability index": 4.79}
{"Sequence entry": "FGDSPKAEKRQIGDQEGPRPARAT [S23A]", "protein stability index": 5.25}
{"Sequence entry": "FMDSPKAEKRQIGDQEGPRPARST [G2M]", "protein stability index": 4.96}
